system: HCT116; test: viability inhibition vs untreated; higher = more cytotoxic; settings: genotype: MTA1-KO; 16 nM; 72 h
Counter-ions that a name gives are not always drawn.
Readout Label: viability inhibition (%)
Numeric answer only, unit % assumed.

-- ask Name the reported viability inhibition value associated with the compound C/C(=N\NC(=O)c1cccc(S(=O)(=O)N2CCOCC2)c1)c1cc(Cl)ccc1O [SP2509]
-- reply 13

-- ask Give the measured viability inhibition of CC(C)c1c(C(=O)Nc2ccccc2)c(-c2ccccc2)c(-c2ccc(F)cc2)n1CC[C@@H](O)C[C@@H](O)CC(=O)O [Atorvastatin Calcium] .
-- reply -2.27

-- ask Which viability inhibition reading was recorded for the compound Cc1nc(Nc2ccc(F)cc2)nc(N2CCc3ccccc3C2C)c1C (centres undefined) [Revaprazan hydrochloride] ?
-- reply -4.67

-- ask Given the compound O=C(Oc1cccc(F)c1OC(=O)c1cccc(O)c1)c1cccc(O)c1 [WZB117] , what is its reported viability inhibition?
-- reply 1.38
